Tested on: CCRF-CEM leukemia
experiment-notes: NCI tumour cell line growth inhibition, 48 h
endpoint-name: TGI (µM)
Just the number in µM, nothing appended.

1. Oc1ccc(Br)cc1Sc1cc(Br)ccc1O ... 24.8
2. C[CH2][Sn]1([CH2]C)[O]C(=O)[O][Sn]([CH2]C)([CH2]C)[O]1 ... 31.8
3. C=CCCCCCCCCCCCC1CCC(CC)N1 (stereo unspecified) ... 29
4. CCCCCCCCCCCCCCCCCCOCC(O)COP(=O)(O)OCC1OC(n2cc(F)c(=O)[nH]c2=O)CC1O (stereo unspecified) ... 16.5
5. Cc1ccc(S(=O)(=O)N2CCN(CCN(C)CCN3CCN(S(=O)(=O)c4ccc(C)cc4)CC3)CC2)cc1 ... 44.2
6. O=c1oc2ccccc2c(O)c1/C=N\c1nc(-c2ccccc2)cs1 ... 9.74
7. COC1=CC23C=CC1[C@@H](c1ccccc1)C2=C(C)C(=O)N3C(=O)NC1CCCCC1 (stereo partly specified) ... 72.5

Provide the documented TGI with CCRF-CEM leukemia as the system for Cc1nn(C(=O)c2ccccc2O)c2c1C(c1ccccc1)SC(N)=N2 (stereo unspecified)
8.15

====

Recorded measurements of TGI, one per entry
Test system: KM12 colon
experiment-notes: NCI tumour cell line growth inhibition, 48 h

1) O=C(Nc1cccc(-c2cn3ccccc3n2)c1)c1ccncc1 ... > 100 µM
2) Cc1cc(S(=O)(=O)Nc2nc(N)nc(N3N=CCC3C)n2)c(S)cc1Cl (stereo unspecified) ... > 10 µM
3) O=C(C(O)c1cn(Cc2ccccc2)c2ccccc12)N1CCCCC1 (stereo unspecified) ... > 100 µM
4) COc1ccc(-c2c(C#N)c(-c3ccccc3)n(NS(=O)(=O)c3ccccc3)c(=O)c2C#N)cc1 ... > 100 µM
5) O=c1oc2ccccc2c(O)c1/C=N\c1nc(-c2ccccc2)cs1 ... 39.1 µM

Bench note: what TGI did `CCOc1ccccc1NC(=O)/C=C1\NC(=O)CS1` show?
> 100 µM

Bench note: what TGI did NC(CCCCNC(=O)OCc1ccccc1)C(=O)NC(CCCCNC(=O)OCc1ccccc1)C(=O)ON1C(=O)CCC1=O (stereo unspecified) show?
> 100 µM

Bench note: what TGI did O=C1c2ccccc2CC12Cc1ccc3c(c1C2)CCC3 (stereo unspecified) show?
73.9 µM

Bench note: what TGI did `O=C(O)c1ccccc1/C=N\NC1=NCCCCN1` show?
> 100 µM

Bench note: what TGI did `N#CCCc1nc2ccc(Br)cc2c(=O)n1CCO` show?
> 100 µM

Bench note: what TGI did `CC(=O)O/N=C/c1ncccc1CO` show?
> 100 µM

====

System: SK-MEL-2 melanoma
experiment-notes: NCI tumour cell line growth inhibition, 48 h
Recorded measurements of GI50, one per entry

1. CN1CCN(Cc2ccc(NC(=O)c3cncc(C#Cc4cnc(N)c5ccc(F)cc45)c3)cc2C(F)(F)F)CC1 ... 0.808 µM

Bench note: what GI50 did CC1=CSC2=NC(c3ccc(Cl)c(Cl)c3)=CC(c3ccc(Cl)cc3)N12 (centres undefined) show?
> 100 µM

Bench note: what GI50 did `Cc1cc(/C=C2\SC(=Nc3ccccc3)N(C3CCCC3)C2=O)c(C)n1-c1ccc(Cl)cc1` show?
> 100 µM

Bench note: what GI50 did `Oc1ccc(Br)cc1Sc1cc(Br)ccc1O` show?
5.62 µM

====

System: HT29 colon
experiment-notes: NCI tumour cell line growth inhibition, 48 h
endpoint-name: GI50

Reference set (4 entries):
1. O=[N+]([O-])c1ccc2[nH]cc(-c3c4ccsc4cc4[nH]c5ccc([N+](=O)[O-])cc5c34)c2c1 ... 1.21 µM
2. c1ccc2c(c1)[I+]c1ccccc1-2 ... 38.6 µM
3. COc1cc(-c2cnn(C)c2)ccc1Nc1ncc2ccnc(N[C@@H](C)C(C)(C)C)c2n1 ... > 50.6 µM
4. Cc1ccc(C(=O)c2oc3ccc4c(C)cc(=O)oc4c3c2C)cc1 ... 8.9 µM

Provide the documented GI50 with HT29 colon as the system for `S=C(Nc1ccc(-c2nc3ccccc3[nH]2)cc1)NC1CCCCC1`
34.4 µM

====

Recorded measurements of GI50, one per entry
Tested on: HT29 colon
experiment-notes: NCI tumour cell line growth inhibition, 48 h

1) Oc1ccc(Br)cc1Sc1cc(Br)ccc1O ... 19 µM

Bench note: what GI50 did `CN(C)CCNc1nc2ccccc2c2c1c1c(n2Cc2ccccc2)-c2ccccc2C1=O` show?
6.92 µM

====

Recorded measurements of TGI, one per entry
Tested on: HOP-92 NSCLC
experiment-notes: NCI tumour cell line growth inhibition, 48 h
*1 amine or outer side, *2 acyl side, *3 side chain or, on linkers, in order; H or OH if unused. Where a SMILES comes first, the peptide text is derived from it. Bridges are numbered along the chain shown (N, C = ends). [ ]: non-standard residue; d: D form. ξ: configuration not given here. X4 = CCC(C)C(N[*:1])C(O)CC(=O)O[C@H](C(=O)C(C)C(=O)[*:2])C(C)C; NMeY = CN[C@@H](Cc1ccc(O)cc1)C(=O)O; ξNMeL = CNC(CC(C)C)C(=O)O; ξT = CC(O)C(N)C(=O)O

Reference set (4 entries):
1. O=C(Oc1ccc(O)c2c(=O)n3c(cc12)[nH]c1ccccc13)c1ccccc1 ... 53.4 µM
2. CC(C)=CC(C(O)c1ccccc1)S(=O)(=O)c1nccn1C (stereo not drawn) ... > 100 µM
3. CC1=CSC2=NC(c3ccc(Cl)c(Cl)c3)=CC(c3ccc(Cl)cc3)N12 (stereo not drawn) ... > 100 µM
4. COc1ccc(NC2Oc3cc4c(cc3C(c3cc(OC)c(O)c(OC)c3)C2C)OCO4)cc1 (stereo not drawn) ... > 100 µM

Provide the documented TGI with HOP-92 NSCLC as the system for `Cc1ccc(S(=O)(=O)N2CCN(CCN(C)CCN3CCN(S(=O)(=O)c4ccc(C)cc4)CC3)CC2)cc1`
35.6 µM

Provide the documented TGI with HOP-92 NSCLC as the system for CCC(C)C1NC(=O)C(NC(=O)C(CC(C)C)N(C)C(=O)[C@@H]2CCCN2)C(C)OC(=O)[C@H](Cc2ccc(OC)cc2)N(C)C(=O)[C@@H]2CCCN2C(=O)[C@H](CC(C)C)NC(=O)C(C)C(=O)[C@H](C(C)C)OC(=O)CC1O (stereo partly drawn) (H-P[ξNMeL][ξT][X4]LP[NMeY](Me); ester 3-C)
0.0187 µM

Provide the documented TGI with HOP-92 NSCLC as the system for `O=C(/C=C/c1ccc([N+](=O)[O-])cc1)c1nc2ccccc2[nH]1`
> 100 µM

Provide the documented TGI with HOP-92 NSCLC as the system for `COc1cc2ccnc3c2c(c1O)N(C)C=C3`
> 100 µM

====

System: CAKI-1 renal
experiment-notes: NCI tumour cell line growth inhibition, 48 h; in the data active = GI50 below about 0.43 µM; inactive = the rest
Please reply with one of these outcomes: active, inactive

1. CCOC(=O)[C@@H](C)C[C@H](Cc1ccccc1)NC(=O)c1csc([C@@H](C[C@H](C(C)C)N(C)C(=O)[C@@H](NC(=O)[C@H]2C[C@H](O[Si](C)(C)C(C)(C)C)CCN2C)C(C)C)OC(C)=O)n1 ... active

Called result for `COc1cc2c(cc1OCc1ccccc1)N=C[C@@H]1C/C(=C/C(=O)NCCCN3C(=O)c4cccc5cccc(c45)C3=O)CN1C2=O`
inactive

Called result for `COc1cc2nc(-c3ccc(C(F)(F)F)cc3)cc(OCCCN3CCOCC3)c2cc1OC`
active

Called result for CC1=CSC2=NC(c3ccc(Cl)c(Cl)c3)=CC(c3ccc(Cl)cc3)N12 (stereo not given)
inactive

Called result for `Cc1cc(/C=C2\SC(=Nc3ccccc3)N(C3CCCC3)C2=O)c(C)n1-c1ccc(Cl)cc1`
inactive

Called result for `COc1cc(OC)c(/C=C/c2ccc3ccccc3[n+]2C)c(OC)c1`
inactive

Called result for `Clc1nc(Oc2ccccc2)nc(-c2cn(-c3ccccc3)c3ccccc23)n1`
inactive

====

System: MOLT-4 leukemia
experiment-notes: NCI tumour cell line growth inhibition, 48 h; in the data active means GI50 below about 0.43 µM; inactive means the rest
Please reply with one of these outcomes: YES (active), NO (inactive)

1. CC[N+](CCCCCCCCCC[N+](CC)(c1ccccn1)c1ccccn1)(c1ccccn1)c1ccccn1 ... NO
2. C[CH2][Sn]1([CH2]C)[O]C(=O)[O][Sn]([CH2]C)([CH2]C)[O]1 ... NO
3. COc1cc(OC2OC(C)C(O)C(O)C2O)cc2oc(-c3ccc(O)cc3)c(CC=C(C)C)c(=O)c12 (stereo not given) ... NO
4. CC(=O)Oc1cc(C)ccc1[C@]1(C)CC[C@H](C)/C1=C\Br ... NO

Called result for `O=C1c2cc(Br)ccc2-c2c1c1ccc([N+](=O)[O-])cc1c(=O)n2CCCCl`
YES

====

Tested on: MDA-MB-435
experiment-notes: NCI tumour cell line growth inhibition, 48 h
endpoint-name: TGI (µM)
Just the number in µM, nothing appended.

1. COc1cc2c(cc1OCc1ccccc1)N=C[C@@H]1C/C(=C/C(=O)NCCCN3C(=O)c4cccc5cccc(c45)C3=O)CN1C2=O ... 3.05

Bench note: what TGI did `COc1cccc(-c2nc3sccn3c2-c2ccnc(NCCNC(=O)Nc3cccc(C(F)(F)F)c3)n2)c1` show?
12.3
